assay: yeast display, Sf9 membrane polyspecificity reagent, FACS + sequencing; frameworks hold sequencing errors
Assay Metric: polyreactivity (PSR sort gate)

Example entries and their recorded answers appear below.
Sequence Text: QVQLVESGGGLVQAGGSLRLSCAAYGSTFWVYAMVWYRQAPGKERELVAAIDYSGGSTYYADSVKGRFTISRDNAKNNVYLQMNSLKPEDTAVYYCAAGEGQYWLWDGEGEYDYWGQGTQVTVSS
Reported: low polyreactivity
//
Sequence Text: QVQLVESGGGLVQAGGSLRLTCAASGFIFKFYAMGWSRQAPGKEREVVAAITSSGGSTYYADSVKGRFTISRDNAKNTVYLQMNSLKPEDTAVYYCAAQFPGVYYYIYDYWGQGTQVTVSS
Reported: high polyreactivity
//
Sequence Text: QVQLVESGGGLVQAGGSLRLSCAASGFTFERYTMGWYRQAPGKEREMVATISRRSGRTSYADSVKGRFTISRDYAKNTVYLQMNRLQPEDTAVYYCAVDDAYPDRYDYWGQGTQVTVSS
Reported: high polyreactivity
//
Sequence Text: QVQLVESGGGLFQAGGSLRLSCAASGSIFWPNTMGWYRQAPGKERELVATISSGGDTSYADSVKGRFTISRDNEKNTVYLQMNSLKPEDTAVYYLAKSITVDDVHPRALTYNYWGQGTQVTVSS
Reported: low polyreactivity
//
Sequence Text: QVQLVESGGGLVQAGGSLRLTCAASGRTFAINVMGWYIQAPGKERELVASIRGRGGRTNYADSVKGRFTISRDNAKNTVYLQMNRLKPEDTAVYYCAASQWWRYDYWGQGTQVTVSS
Reported: high polyreactivity
//
Sequence Text: QVQLVESGGGLDQAGGSLRLSCAASGRIFSYYAMGWYRQAPGKERELVAVISRRGDNTYYADSVKGRFTISRDNAKKTVYFQMNSLKPEDTAVYYCAARFGYLTFYSSGYYWGQGTQVTVSS
Reported: high polyreactivity
//
Sequence Text: QVQLVESGGGLVQAGGSLRLSCDASGRTFYANDMGWYRQAPGKERELVAAISSSVTSTHYADSVKGRFTISRDNAKNTVYLQMNSLKPEDTAVYYCNKDPIREVQPPGPSEMDYWGQGTQVTVSS
Reported: low polyreactivity
//
Sequence Text: QVQLVESGGGLFQAGGSLRLSCAASGSTFVKYAMGRSRPAPAKERELVAAINRSGASTYYADSVKGRFTISRDNATNTVNLQMISLKPEDTAVYYCAARFSWLGYYWGQGTQETVSS
Reported: high polyreactivity

Problem: Would you kindly share the measured polyreactivity (PSR sort gate) for QVQLVDSGGGLVQAGGSLRLSCAASGRTFYYNTMGWYRQAPGKERELVAAITYRGGRTYYADSVKGRFTISRDNAKNTVYLQMNSLKPEDTAVYYCAADWRGPGRTYKINKYDYWGQGTQVTVSS ?
Solution: high polyreactivity

Problem: What do you get for QVQLVESGGGLVQAGGSLRLSCAASGSTFETNAMGWYRPAPGKERELVAAIRWSTGNTYYADSVKGRFTISRDNAKNTVYLQMNSLKPEDTEVYYCAAYKGKHYIEGYWGQGTQVTVSS ?
Solution: low polyreactivity

Problem: How about QVQLVESGGGLVQAGGSLRLSCSASGRIFPRYAMGWYIQEPGKEMELFATISSGGSTYYADSVKGRFTITRDNAKNTVYLQMNSLKPEDTADYYCADRKGQYTVINGMDYWGQGTQVTVSS ?
Solution: low polyreactivity

Problem: What about this sequence? QVQLIESGGGLVQAGGSLRLSCAASGSSLYYYALGWYRQAPGKEREWVAAISSSDGRTYYADSVKGRFTISRDNAKNTVYVQMNSLKPEDTAVYYCNAAVYAHRYIYGFDYWGQGTQVTVSS
Solution: high polyreactivity

Problem: What about this sequence? QVQLQEIGGGLVQAGGSLRQSYAASGYIFPSLAMGWYRQAQGKEREFVAAIGRGSTNNYADSVKGRFTISRDNAKNTAYQQMNSLKPEDTAVYYCAVVQRSKRTYPWYDYWGQGTQVTVSS
Solution: low polyreactivity

Problem: Field entry: QVQLVESGGGLVQAGGSLRLSCAASGITFRFYAMGWYRQAPGKERELVAAITSSGGSTYYADSVKGRFTISRDNAKNTVYLQMNSLKPEDTAVYYCAASYGAPYGYKRYYYWGQGTQVTVSS
Solution: high polyreactivity

Problem: Also QVKLVESGGGLVQAGGSLRLSCAASGLIFGYNTMGWYRQAPGKERELVAAITRSGGSTYYADSVKGRFTISRDNAKNTVYLQMNSLKPEDTAVYYCAARHRSAYYHLDYWGQGTQVTVSS , if possible.
Solution: high polyreactivity

Problem: Same question for QVQLVESGGGLVQAGGSLRLSCADSGIIFITNAMGWYRQAPGKERELVAAISSTVSTNYADSVKGRFTISRDNAKNTVYLQMNSLIQEDTAVYFCAAEWGLTQGESIYDFWGQGTQVTVSS please.
Solution: low polyreactivity

Problem: How about QVQLVESGGGLVQAGGSLRLSCADSGRTFRFNTRGWYRQAPGKEWVLVASISSSGGRTYYADSVKGRFTISRDNAKNTLYLQMHSLKPEDTAVYYCAAAAGWGARTSTYCGYDYWGQGTQVTVST ?
Solution: high polyreactivity

Problem: Another sequence to look at: QVQLVESGGGLVQAGGSLRLSCAASGSIFKAYAMGWYRQAPGKERELVAAISTSDGSTYYADSVKGRFTISRDNAKNNVYLLMNSLKPEDTAVYYCATEYDYWDDSYDYWGQGTQVTVSS
Solution: low polyreactivity

Problem: What do you get for QVQLVESGGGLVQAGGSLRLSCADSGLIFKSYAMGWYRQARGKERELVAAISGNDGSTYYADSVKGRFTISRDNAKNTVYLQMNSLKPEDTAVYYCAADFSGPWYEYTFNYCGQGTQVTVSS ?
Solution: high polyreactivity

Problem: Moving on to QVQLVESGGGLVQAGGSLRLSCAASGSTFDDNAMGWYRQAPGKERELVAAINGDGITTYADSVKGRFTISRDNAKNTVYLQMNSMKPEDTAVYYCNTVGIGAWGYSYPDEDNYWGQGTQVTVSS
Solution: low polyreactivity

Problem: Follow-up entry: QVQLVESGGGLVQAGGSLRLSCAASGRIFVPYAMGWSRQAPGKERELVAAISWRGGSTNYADSVKGRFTISRDNAKNTVYLQMNSLKPEDTAVYYCAAVPVRYRYSYGYYYWGQGTQVTVSS
Solution: high polyreactivity
